Would you mind telling me the reported IC50 of each entry?
Biological target: Peroxisome proliferator-activated receptor alpha (Homo sapiens)
Experiment: Inhibition of PPAR-alpha (unknown origin) by SPA assay
Give just the numeric value; µM need not be written.

Q: I'd like to know its IC50. The molecule in question is `CC/C=C\C/C=C\C/C=C\CCCCCCCC(=O)O`
Result: 1.2

Q: I'd like to know its IC50. The molecule in question is `CCCCC/C=C\C/C=C\C/C=C\CCCCC(=O)O`
Result: 0.27

Q: I'd like to know its IC50. The molecule in question is `CCCCC/C=C\C/C=C\C/C=C\C/C=C\CCCC(=O)O`
Result: 1.2

Q: I'd like to know its IC50. The molecule in question is `CCCCC/C=C\C/C=C\C/C=C\CCCCCCC(=O)O`
Result: 1.4

---

Molecular target: Peroxisome proliferator-activated receptor alpha (Homo sapiens, UniProt Q07869)
Sequence (Q07869 whole entry): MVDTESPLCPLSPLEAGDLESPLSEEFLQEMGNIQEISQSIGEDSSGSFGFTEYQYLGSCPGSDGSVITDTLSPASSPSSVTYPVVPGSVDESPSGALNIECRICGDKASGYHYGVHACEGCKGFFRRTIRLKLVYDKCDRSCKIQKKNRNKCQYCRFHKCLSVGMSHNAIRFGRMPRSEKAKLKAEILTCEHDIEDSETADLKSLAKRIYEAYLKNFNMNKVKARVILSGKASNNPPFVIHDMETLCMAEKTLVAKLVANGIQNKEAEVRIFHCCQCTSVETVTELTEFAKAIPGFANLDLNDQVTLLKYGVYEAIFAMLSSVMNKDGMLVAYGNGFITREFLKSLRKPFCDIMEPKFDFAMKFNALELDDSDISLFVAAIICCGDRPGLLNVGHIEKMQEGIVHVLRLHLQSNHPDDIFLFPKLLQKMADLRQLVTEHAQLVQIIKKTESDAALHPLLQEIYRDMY
Assay: Inhibition of PPAR-alpha (unknown origin) by SPA assay
assay endpoint: IC50
Remember to quote the unit after the number.

Q: I'd like to know its IC50. The compound in question is `CCCCCCCC/C=C\CCCCCCCC(=O)O`
Result: 600 nM

Q: I'd like to know its IC50. The compound in question is `CC/C=C\C/C=C\C/C=C\C/C=C\C/C=C\CCCC(=O)O`
Result: 1100 nM

Q: I'd like to know its IC50. The compound in question is `CCCCCC/C=C\CCCCCCCC(=O)O`
Result: 1700 nM

Q: I'd like to know its IC50. The compound in question is `CCCCC/C=C\C/C=C\CCCCCCCC(=O)O`
Result: 1100 nM
